- Test system: KM20L2 colon
- Assay Info: NCI tumour cell line growth inhibition, 48 h
Assignment: determine reported TGI for the given molecules.

Entry CC/C(=C(/CC)c1ccc([O-])cc1)c1ccc([O-])cc1.CC/C(=C(\CC)c1ccc([O-])cc1)c1ccc([O-])cc1.O=C([CH-]C(=O)c1ccccc1)c1ccccc1.O=C([CH-]C(=O)c1ccccc1)c1ccccc1.O=C([CH-]C(=O)c1ccccc1)c1ccccc1.O=C([CH-]C(=O)c1ccccc1)c1ccccc1.[Ti+4].[Ti+4] : reported TGI = ?
77.8 µM

Please give the result for COc1ccc2c(c1)[n+]([O-])c(-c1ccccc1)c(N)[n+]2[O-] too.
> 100 µM

Please give the result for Cc1c(C(=O)C/C(=N/NC(=O)C[n+]2ccccc2)C(=O)Nc2ccccc2)[n+](=O)c2ccccc2n1O too.
> 100 µM
